Biological target: PARP-1 F2 K131I/G135D (Homo sapiens, UniProt P09874 103-214, K131I;G135D)
Sequence (P09874 103-214 K131I/G135D): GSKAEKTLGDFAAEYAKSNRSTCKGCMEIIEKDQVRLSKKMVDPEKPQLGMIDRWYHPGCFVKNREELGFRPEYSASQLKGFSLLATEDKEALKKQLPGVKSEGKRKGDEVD
Experiment: fluorescence anisotropy; 25 mM NaCl, one-site fit; 50 mM Tris-HCl pH 7.0, 150 uM ZnSO4, 4 mM DTT, 25 C; NaCl 0-200 mM (T2, as in cof; 10 nM DNA) or 25 mM (T3 mutants; 25 nM DNA)
Conditions: protein: recombinant; label: fluorescein-dT at T8; single-chain dumbbell, 18 bp with central nick, two tetraloops
assayEndpoint: Kd
Answer by giving the amount and then stating its unit.

Ask: Look up Kd for this binder: CGGTCGATCGTAAGATCGACCGGCGCTGGAGCTTGCTCCAGCGC (structured_DNA, 5'-phosphate) [44-nt nicked dumbbell, 5'-phosphate, fluorescein-dT]
Reply: 3.75 µM
